Conditions: in tert-amyl alcohol, 312.15 K
Endpoint: solubility (mole fraction)

1. COC(=O)/C=C/c1ccc(O)c(OC)c1; 0.287
2. COC(=O)/C=C/c1cc(OC)c(O)c(OC)c1; 0.0644
3. COC(=O)/C=C/c1ccc(O)cc1; 0.154

###

Details: in n-hexane, 317.15 K
Endpoint: solubility (mole fraction)

1. COC(=O)/C=C/c1ccc(O)c(OC)c1; 0.00354
2. COC(=O)/C=C/c1cc(OC)c(O)c(OC)c1; 0.000743
3. COC(=O)/C=C/c1ccc(O)cc1; 8.13e-05

###

# reported solubility (mole fraction); entries follow
Conditions: in tert-butanol, 317.15 K
Endpoint: solubility (mole fraction)

1) COC(=O)/C=C/c1ccc(O)c(OC)c1; 0.295
2) COC(=O)/C=C/c1cc(OC)c(O)c(OC)c1; 0.0743
3) COC(=O)/C=C/c1ccc(O)cc1; 0.143

###

Listing: solubility (mole fraction) of selected compounds
Settings: in n-hexane, 321.15 K
Endpoint: solubility (mole fraction)

1) COC(=O)/C=C/c1ccc(O)c(OC)c1; 0.00416
2) COC(=O)/C=C/c1ccc(O)cc1; 0.000124
3) COC(=O)/C=C/c1cc(OC)c(O)c(OC)c1; 0.000804

###

Reported solubility (mole fraction) by item:
Settings: in n-hexane, 312.15 K
Endpoint: solubility (mole fraction)

1. COC(=O)/C=C/c1ccc(O)c(OC)c1; 0.00251
2. COC(=O)/C=C/c1cc(OC)c(O)c(OC)c1; 0.000495
3. COC(=O)/C=C/c1ccc(O)cc1; 6.18e-05

###

Conditions: in n-hexane, 303.15 K
Endpoint: solubility (mole fraction)

1) COC(=O)/C=C/c1ccc(O)c(OC)c1; 0.00112
2) COC(=O)/C=C/c1ccc(O)cc1; 2.81e-05
3) COC(=O)/C=C/c1cc(OC)c(O)c(OC)c1; 0.000292

###

Each item that follows carries a reported solubility (mole fraction).
Conditions: in tert-butanol, 307.15 K
Endpoint: solubility (mole fraction)

1. COC(=O)/C=C/c1ccc(O)cc1; 0.113
2. COC(=O)/C=C/c1ccc(O)c(OC)c1; 0.209
3. COC(=O)/C=C/c1cc(OC)c(O)c(OC)c1; 0.0234

###

Recorded solubility (mole fraction) values for a group of compounds are listed next.
Conditions: in tert-butanol, 321.15 K
Endpoint: solubility (mole fraction)

1. COC(=O)/C=C/c1cc(OC)c(O)c(OC)c1; 0.0973
2. COC(=O)/C=C/c1ccc(O)c(OC)c1; 0.325
3. COC(=O)/C=C/c1ccc(O)cc1; 0.171

###

Settings: in tert-amyl alcohol, 307.15 K
This section presents compounds with their documented solubility (mole fraction) values.
Endpoint: solubility (mole fraction)

1) COC(=O)/C=C/c1ccc(O)c(OC)c1; 0.246
2) COC(=O)/C=C/c1cc(OC)c(O)c(OC)c1; 0.0336
3) COC(=O)/C=C/c1ccc(O)cc1; 0.126

###

Details: in ethyl acetate, 321.15 K
Form field: solubility (mole fraction) (one value per entry).
Endpoint: solubility (mole fraction)

1) COC(=O)/C=C/c1ccc(O)cc1; 0.113
2) COC(=O)/C=C/c1cc(OC)c(O)c(OC)c1; 0.168
3) COC(=O)/C=C/c1ccc(O)c(OC)c1; 0.334

###

Details: in tert-butanol, 312.15 K
Endpoint: solubility (mole fraction)

1. COC(=O)/C=C/c1cc(OC)c(O)c(OC)c1; 0.0523
2. COC(=O)/C=C/c1ccc(O)c(OC)c1; 0.247
3. COC(=O)/C=C/c1ccc(O)cc1; 0.128

###

Conditions: in tert-amyl alcohol, 317.15 K
Some compounds, each annotated with its measured solubility (mole fraction).
Endpoint: solubility (mole fraction)

1) COC(=O)/C=C/c1ccc(O)c(OC)c1; 0.312
2) COC(=O)/C=C/c1cc(OC)c(O)c(OC)c1; 0.0926
3) COC(=O)/C=C/c1ccc(O)cc1; 0.174

###

Conditions: in n-hexane, 307.15 K
Quick list: solubility (mole fraction) per entry.
Endpoint: solubility (mole fraction)

1) COC(=O)/C=C/c1ccc(O)c(OC)c1; 0.00211
2) COC(=O)/C=C/c1ccc(O)cc1; 4.38e-05
3) COC(=O)/C=C/c1cc(OC)c(O)c(OC)c1; 0.000383

###

Form field: solubility (mole fraction) (one value per entry).
Settings: in ethyl acetate, 312.15 K
Endpoint: solubility (mole fraction)

1. COC(=O)/C=C/c1cc(OC)c(O)c(OC)c1; 0.147
2. COC(=O)/C=C/c1ccc(O)c(OC)c1; 0.279
3. COC(=O)/C=C/c1ccc(O)cc1; 0.0997

All values here come from BigSolDB 2.1.
